- Test system: BT-549 breast
- Assay Name: NCI tumour cell line growth inhibition, 48 h
# maps each entry to its TGI
Measurement Kind: TGI

INSERT INTO assay_data (smiles_record, result) VALUES
  ('C[C@H]1COCCN1c1nc(-c2cnc(N)cc2C(F)F)nc(N2CCOCC2)n1', '0.818 µM'),
  ('CN(/N=C/C=N/N(C)C1=NCCCN1)C1=NCCCN1', '> 100 µM'),
  ('CCOC(=O)N/N=C(\CC)NO', '> 100 µM'),
  ('CC(C)(O)CCc1cccc(C(=O)c2cnn(-c3ccc(F)cc3)c2N)c1', '> 25 µM'),
  ('O=c1[nH]c2ccc(Cl)cc2o1', '> 100 µM'),
  ('C=CCSC1=N/C(=C\c2ccc(OC)cc2)C(=O)N1CC=C', '74.4 µM');

All figures here come from PubChem BioAssay (NCI).
